The entries below are paired with their reported half-life at 0.5 μM.
- PROCEDURE_SUMMARY: Human liver microsome (HLM) metabolic stability assay
- Type: in vitro ADME
- ASSAY_SETUP: pooled human liver microsomes, HLM 0.5 mg/mL, test compound 0.5 μM, NADPH, 37° C., 0-30 minutes, Experiment 1, read-out: t1/2 (min) Experiment 1
Provide only the numeric value, understood in min.

- [2H]C([2H])([2H])c1cccc(Cl)c1NC(=O)c1cnc(Nc2cc(N3CCN(C([2H])([2H])C([2H])([2H])O)CC3)nc(C)n2)s1: 19.4
- [2H]C([2H])(O)CN1CCN(c2cc(Nc3ncc(C(=O)Nc4c(Cl)cccc4C([2H])([2H])[2H])s3)nc(C)n2)CC1: 17.7
- Cc1nc(Nc2ncc(C(=O)Nc3c(C)cccc3Cl)s2)cc(N2CCN(CCO)CC2)n1 [Dasatinib, reference compound]: 16

(Q) Which half-life at 0.5 μM reading was recorded for the compound [2H]C([2H])([2H])c1cccc(Cl)c1NC(=O)c1cnc(Nc2cc(N3C([2H])([2H])C([2H])([2H])N(C([2H])([2H])C([2H])([2H])O)C([2H])([2H])C3([2H])[2H])nc(C)n2)s1 ?
(A) 17.3

(Q) Which half-life at 0.5 μM reading was recorded for the compound [2H]C1([2H])N(CCO)C([2H])([2H])C([2H])([2H])N(c2cc(Nc3ncc(C(=O)Nc4c(C)cccc4Cl)s3)nc(C)n2)C1([2H])[2H] ?
(A) 19.6

* * *

- PROCEDURE_SUMMARY: Human liver microsome (HLM) metabolic stability assay
- Assay type: in vitro ADME
- ASSAY_SETUP: pooled human liver microsomes, HLM 0.5 mg/mL, test compound 0.5 μM, NADPH, 37° C., 0-30 minutes, Experiment 2, read-out: t1/2 (min) Experiment 2
The entries below are paired with their reported half-life at 0.5 μM.
Provide only the numeric value, understood in min.

Would you please look over these solved cases?
* Cc1nc(Nc2ncc(C(=O)Nc3c(C)cccc3Cl)s2)cc(N2CCN(CCO)CC2)n1 [Dasatinib, reference compound] | 14.6
* [2H]C([2H])([2H])c1cccc(Cl)c1NC(=O)c1cnc(Nc2cc(N3CCN(C([2H])([2H])C([2H])([2H])O)CC3)nc(C)n2)s1 [Compound 103] | 17.2

(Q) Which half-life at 0.5 μM reading was recorded for the compound [2H]C([2H])([2H])c1cccc(Cl)c1NC(=O)c1cnc(Nc2cc(N3C([2H])([2H])C([2H])([2H])N(C([2H])([2H])C([2H])([2H])O)C([2H])([2H])C3([2H])[2H])nc(C)n2)s1 [Compound 115] ?
(A) 18.2

(Q) Which half-life at 0.5 μM reading was recorded for the compound [2H]C1([2H])N(CCO)C([2H])([2H])C([2H])([2H])N(c2cc(Nc3ncc(C(=O)Nc4c(C)cccc4Cl)s3)nc(C)n2)C1([2H])[2H] [Compound 117] ?
(A) 18.5

* * *

The entries below are paired with their reported half-life at 0.5 μM.
- PROCEDURE_SUMMARY: Human liver microsome (HLM) metabolic stability assay
- Assay type: in vitro ADME
- ASSAY_SETUP: pooled human liver microsomes, HLM 0.5 mg/mL, test compound 0.5 μM, NADPH, 37° C., average of Experiments 1 and 2, read-out: t1/2 (min) Average
Provide only the numeric value, understood in min.

- Cc1nc(Nc2ncc(C(=O)Nc3c(C)cccc3Cl)s2)cc(N2CCN(CCO)CC2)n1 [Dasatinib, reference compound]: 15.3
- [2H]C1([2H])N(CCO)C([2H])([2H])C([2H])([2H])N(c2cc(Nc3ncc(C(=O)Nc4c(C)cccc4Cl)s3)nc(C)n2)C1([2H])[2H]: 19.1
- [2H]C([2H])([2H])c1cccc(Cl)c1NC(=O)c1cnc(Nc2cc(N3CCN(C([2H])([2H])C([2H])([2H])O)CC3)nc(C)n2)s1: 18.3
- [2H]C([2H])([2H])c1cccc(Cl)c1NC(=O)c1cnc(Nc2cc(N3C([2H])([2H])C([2H])([2H])N(C([2H])([2H])C([2H])([2H])O)C([2H])([2H])C3([2H])[2H])nc(C)n2)s1: 17.8

Proceed to the following item.
(Q) Which half-life at 0.5 μM reading was recorded for the compound [2H]C([2H])(O)CN1CCN(c2cc(Nc3ncc(C(=O)Nc4c(Cl)cccc4C([2H])([2H])[2H])s3)nc(C)n2)CC1 ?
(A) 17.9
